The values you see were collected from paper PMC12040169.

Assay: in vitro
Conditions: human, hela cells, % viability
observed_property: viability at 28.5 h, 10 µM (%)
One number for each entry, in %.

Batch of 2 compounds: report viability at 28.5 h, 10 µM for each.
1. O=C(O)c1sccc1S(=O)(=O)NCc1ccc(COCC(F)(F)F)cc1
2. CC(C)NCc1c(O)c(Br)cc2oc3c(c12)CCCC3

Result:
[110, 96.5]

Batch of 2 compounds: report viability at 28.5 h, 10 µM for each.
1. CC(C)(C)c1ccc(NC(=O)N(CCN)Cc2c[nH]c(-c3ccccc3)n2)cc1 [CBK046297C]
2. O=C(O)CSc1nc2ccc(NC(=O)c3ccccc3Cl)cc2s1

Result:
[64.9, 110]

Batch of 7 compounds: report viability at 28.5 h, 10 µM for each.
1. Cn1cc(NC(=O)c2ccc(COc3c(F)c(F)cc(F)c3F)o2)c(C(=O)O)n1
2. N#CCCN(CCC#N)C(=O)CN1C(=O)c2ccccc2C1=O
3. CCCc1[nH]n(-c2ccc([N+](=O)[O-])cc2)c(=O)c1/C=N/N1CCN(C)CC1
4. CN1C(=O)C2(CC(=O)N(CC3CCCCC3)C2=O)c2cc(F)ccc21 (centres unmarked)
5. CN(C)c1ccc(CNC(=O)Cn2nc(C(=O)O)c3ccccc3c2=O)cc1
6. CCCC1=NNC(=O)/C1=C\c1cnc[nH]1
7. O=C(CSc1nnnn1C1CC2CCC1C2)Nc1ccnc2ccccc12 (centres unmarked)

Result:
98.5
89
92.8
106
105
105
89.4

Batch of 4 compounds: report viability at 28.5 h, 10 µM for each.
1. COCCN(C(=O)CSc1ccc2ccccc2n1)C1CCS(=O)(=O)C1 (centres unmarked)
2. c1cnc(NCc2cc3n(n2)CCN(CC2CCCNC2)C3)nc1 (centres unmarked)
3. O=c1cnnc(Nc2cccc(Cl)c2Cl)[nH]1
4. CCCCC(=O)NC(c1ccccc1OC)c1cc(Cl)c2cccnc2c1O (centres unmarked)

Result:
1: 96.4; 2: 102; 3: 93; 4: 84.4

Batch of 2 compounds: report viability at 28.5 h, 10 µM for each.
1. Cc1ccc(NC(=O)c2cnc3scc(C)n3c2=O)cc1
2. Cc1ccc(S(=O)(=O)NCCCN2CCOCC2)cc1C

Result:
[107, 96.6]

Batch of 4 compounds: report viability at 28.5 h, 10 µM for each.
1. COCCN(Cc1nnc(-c2cccs2)o1)C(C(=O)N1CCOCC1)c1ccccc1 (centres unmarked)
2. O=C(Cc1ccccc1)N/N=C/C1CC2CC1CC2C(F)(F)F (centres unmarked)
3. CCOC(=O)Cn1cnc2nc3c(cc2c1=O)CC(C)CC3 (centres unmarked)
4. CCN1CCOC(CNCc2ccc(OCC(N)=O)cc2)C1 (centres unmarked)

Result:
104
93
90.6
96.8

Batch of 5 compounds: report viability at 28.5 h, 10 µM for each.
1. O=C(CSCc1c(Cl)cccc1Cl)Nc1ccc(-c2nnc(-c3ccccc3)o2)cc1
2. O=c1[nH]c(N2CCC3(CC2)OCCO3)nc2c(-c3ccccc3Cl)csc12
3. O=c1[nH]nc2c3c4c(sc3ncn12)CCCC4
4. Cc1ccc(OCc2nc(C#N)c(NCCCN3CCOCC3)o2)cc1
5. CCn1c(C)nc2cc(NC(=O)Cn3cnc4ccccc43)ccc21

Result:
1. 99.7
2. 114
3. 56.8
4. 112
5. 94.1

Batch of 7 compounds: report viability at 28.5 h, 10 µM for each.
1. O=C1CCC(=O)N1CCOc1nccnc1OC1CCN(Cc2ccc([N+](=O)[O-])cc2)CC1
2. N#CC1=C(SCC(=O)Nc2cccc3ccccc23)NC(=O)CC1c1ccco1 (centres unmarked)
3. Cn1c(=O)n(CCN2CCOCC2)c(=O)c2c1nc1n2CCN1c1ccc(Oc2ccccc2)cc1
4. O=C(O)/C=C/C(=O)N1N=C(c2ccc(F)cc2)CC12C(=O)Nc1ccccc12 (centres unmarked)
5. Cc1ccccc1OCCn1c(CCCO)nc2ccccc21
6. COc1ccc(Br)cc1C(=O)Nc1cc(-c2nc3ccccc3[nH]2)ccc1Cl
7. O=C(C1CC1)N1CCC(Cn2nc(-c3cccs3)ccc2=O)CC1

Result:
[95.7, 101, 91.4, 88.9, 115, 93.6, 101]
